System: ACHN renal
measurementProtocol: NCI tumour cell line growth inhibition, 48 h
parameter: TGI

Before answering, review these 4 worked examples.
NC(=S)N/N=C1/CN(c2ccc(Cl)c(Cl)c2)CC(=O)C1c1nc2ccccc2s1 (stereo unspecified) ... > 100 µM
C=CCCC(=O)C(=[N+]=[N-])C(=O)CCC(=O)c1ccccc1 ... > 10 µM
Cc1ccc(SCC(OCn2cnc3c(Cl)nc(N)nc32)[C@H](C)F)cc1 (stereo partly specified) ... > 100 µM
COc1cc(-c2cc3ncccc3c3[nH]c(=O)c4cccnc4c23)cc(OC)c1OC ... > 100 µM

From here, focus on the item given below.
[in] Any idea what TGI was measured for CC1(C)OC2OC(COC(=O)c3ccc(C#N)cc3)C3OC(C)(C)OC3C2O1 (stereo unspecified) ?
[out] > 75 µM

* * *

Test system: SR leukemia
measurementProtocol: NCI tumour cell line growth inhibition, 48 h
parameter: TGI

CC(=O)NC1(C)C(C)C2CC1C(C)C2(C)C (stereo not drawn) ... > 100 µM
Clc1ccc(OCc2nnc3n2N=C(c2ccccc2)CS3)c(Cl)c1 ... > 100 µM

From here, focus on the item given below.
[in] Any idea what TGI was measured for CCn1c(=N)sc2nc3ccccc3n2c1=O ?
[out] > 100 µM

* * *

Quick reference for TGI among some molecules
Test system: SF-295 CNS
measurementProtocol: NCI tumour cell line growth inhibition, 48 h

C=CCn1c(-c2ccc(Cl)cc2)csc1=Nc1ccccc1OC ... > 79.8 µM

[in] Give SF-295 CNS TGI for CCOC1CCN(C(=O)c2ccccc2)O1 (configuration not stated)
[out] > 10 µM

[in] Consider next the molecule CCn1c(=N)sc2nc3ccccc3n2c1=O in the same way.
[out] > 100 µM

[in] Consider next the molecule CN(C)c1ccc(/C=C(\NC(=O)c2ccccc2)C(=O)NC(Cc2c[nH]c3ccccc23)C(=O)O)cc1 (configuration not stated) in the same way.
[out] > 100 µM

[in] Consider next the molecule CC1(C)C(=O)C(=Cc2ccco2)C1=O in the same way.
[out] > 100 µM

[in] Consider next the molecule COc1ccc(-c2n[nH]nc2-c2cc(OC)c3c(c2)OCO3)cc1 in the same way.
[out] 0.429 µM

[in] Consider next the molecule CCOC(=O)C1=C(C(=O)OCC)C2(c3ccccc3)N(O1)c1ccccc1C2(C)C (configuration not stated) in the same way.
[out] > 100 µM

[in] Consider next the molecule COc1cc(S(=O)(=O)Nc2ccc(-c3csc(N4C(=O)C(Cl)C4c4cccs4)n3)cc2)ccc1Cl (configuration not stated) in the same way.
[out] > 100 µM

[in] Consider next the molecule COc1ccc(C2C3=C(COC3=O)OC(C)(C)Oc3cc4c(cc32)OCO4)cc1OC (configuration not stated) in the same way.
[out] 88.4 µM

[in] Consider next the molecule COc1ccc2c(c1OC)C(=O)O[C@@H]2[C@H]1c2c(cc3c(c2OC)OCO3)CCN1C in the same way.
[out] > 100 µM

[in] Consider next the molecule CC(=O)O[C@H](C[C@H](C(C)C)N(C)C(=O)[C@@H](NC(=O)[C@H]1CCCCN1C)C(C)C)c1cccc(C(=O)N[C@@H](Cc2ccccc2)C[C@H](C)C(=O)O)n1 in the same way.
[out] > 5.29 µM

[in] Consider next the molecule c1cc[c]([Sn]([O]c2cccc3cccnc23)([O]c2cccc3cccnc23)[c]2ccccc2)cc1 in the same way.
[out] 3.22 µM

[in] Consider next the molecule COc1cc2nc(-c3cccc4cccnc34)nc(NC3CCN(Cc4ccccc4)CC3)c2cc1OC in the same way.
[out] 3.09 µM

[in] Consider next the molecule COc1ccc(CCN2C(=O)CC34C=CC(CC3C2=O)O4)cc1OC (configuration not stated) in the same way.
[out] > 100 µM

[in] Consider next the molecule COc1cccc2cc(C(=O)NC34CC5CC(CC(C5)C3)C4)c(=N)oc12 in the same way.
[out] > 100 µM

[in] Consider next the molecule O=C1C(Cl)=C(NCCF)C(=O)c2ncccc21 in the same way.
[out] 3.21 µM

[in] Consider next the molecule COC(=O)CNC(=O)CCC(C)[C@H]1CCC2C3C(C[C@H](OC(C)=O)[C@@]21C)[C@@]1(C)CCC2(C[C@H]1C[C@H]3OC(C)=O)OOC1(CCCCC1)OO2 (some centres not stated) in the same way.
[out] 18.4 µM

[in] Consider next the molecule Cn1cncc1-c1c(F)cncc1NC(=O)c1c(N)nn2cc(F)cnc12 in the same way.
[out] 6.61 µM

[in] Consider next the molecule COc1cc(C2c3cc4c(cc3[C@@H](N(C)c3ccc(N(C)C)cc3)C3COC(=O)C23)OCO4)cc(OC)c1O (some centres not stated) in the same way.
[out] 0.325 µM

[in] Consider next the molecule CCC[CH2][Sn]([CH2]CCC)([O]C(=O)c1cccc(F)c1F)[O]C(=O)c1cccc(F)c1F in the same way.
[out] 2.85 µM

[in] Consider next the molecule C[C@H]1O[C@@H](C(C)(C)C)OC(=O)[C@@H]1C(OC(=O)c1ccccc1)c1cccc2ccccc12 (some centres not stated) in the same way.
[out] > 100 µM
